The values you see were collected from PubChem BioAssay (Tox21).

- assay_info: qHTS RealTime-Glo MT Cell Viability Assay in HepG2 cells - 8 hour (AID 1224873); also: nearly all actives have a fitted effect of over 55% in size
- stated_conditions: RealTime-Glo luminescence; series mostly up to 76.8 µM
Records with an inconclusive call do not appear. The source made the active and inactive calls. Calls follow the shape of the dose curve; as a rule, active = well fitted cell-killing curve with a large enough effect in the repeat runs; inconclusive = weak or mixed curves; inactive = flat fitted curve, though single readings scatter.
Result category, one only: active, inactive

Some solved entries appear below for comparison.
[
  {
    "compound": "CCN(CC)c1ccc2c(-c3ccc(S(=O)(=O)O)cc3S(=O)(=O)[O-])c3ccc(=[N+](CC)CC)cc-3oc2c1",
    "category_label": "inactive"
  },
  {
    "compound": "CN1CCN(Cc2cc(-c3ccc4[nH]c(=O)oc4c3)co2)[C@@H](c2ccc(F)cc2)C1",
    "category_label": "inactive"
  },
  {
    "compound": "O=C1C(c2[nH]c3ccc(S(=O)(=O)O)cc3c2O)=Nc2ccc(S(=O)(=O)O)cc21",
    "category_label": "inactive"
  },
  {
    "compound": "Cc1ccc(N/N=c2\\c(=O)cc/c(=N\\Nc3ccc(S(=O)(=O)O)cc3)c2=O)c(C)c1",
    "category_label": "inactive"
  },
  {
    "compound": "Cc1cc(C(C#N)c2ccc(Cl)cc2)c(Cl)cc1NC(=O)c1cc(I)cc(I)c1O (centres undefined)",
    "category_label": "inactive"
  }
]

### Prompt Give the logged outcome of this assay for the following compound: COCCOc1cc2cc(C(=O)NC3CCN(C(C)C)CC3)n(CC(=O)Nc3ccc(Cl)cn3)c2cn1
### Response inactive

### Prompt Give the logged outcome of this assay for the following compound: O=c1[nH]c(=O)n([C@H]2C[C@H](O)[C@@H](CO)O2)cc1F
### Response inactive

### Prompt Give the logged outcome of this assay for the following compound: CC[C@H](C)COC(=O)/C=C/c1ccc(N=Cc2ccc(OC)cc2)cc1
### Response inactive

### Prompt Give the logged outcome of this assay for the following compound: C#CC1(O)CC[C@H]2[C@@H]3CCC4=CCCC[C@@H]4[C@H]3CC[C@@]21C (some centres undefined)
### Response active

###

- assay_info: A CellTox Green Cytotoxicity Assay to monitor cytotoxicity in HepG2 cells - 40 hour (AID 1224879); also: nearly all actives have a fitted effect of over 40% in size
- stated_conditions: CellTox Green fluorescence; series mostly up to 76.8 µM
Inconclusive results are not listed. Active and inactive are the calls of the source. Calls follow the shape of the dose curve; as a rule, active = well fitted activation curve with a large enough effect in the repeat runs; inconclusive = weak or mixed curves; inactive = flat fitted curve, though single readings scatter.
Result category, one only: T for active, F for inactive

[
  {
    "compound": "O=C(Oc1ccccc1)Oc1ccccc1",
    "category_label": "F"
  },
  {
    "compound": "C=C(C)c1cccc(C(=C)C)c1",
    "category_label": "F"
  }
]

### Prompt Give the logged outcome of this assay for the following compound: CCO[Si](OCC)(OCC)OCC
### Response F

### Prompt Give the logged outcome of this assay for the following compound: CCCCCCC1CCCC(=O)O1 (centres undefined)
### Response F

### Prompt Give the logged outcome of this assay for the following compound: Cc1ccc(-c2ccccc2)cc1
### Response T

### Prompt Give the logged outcome of this assay for the following compound: CNc1ccc([N+](=O)[O-])cc1
### Response F

### Prompt Give the logged outcome of this assay for the following compound: Cc1cc(C(C)(C)C)c(O)c(C)c1Cn1c(=O)n(Cc2c(C)cc(C(C)(C)C)c(O)c2C)c(=O)n(Cc2c(C)cc(C(C)(C)C)c(O)c2C)c1=O
### Response F

### Prompt Give the logged outcome of this assay for the following compound: CN(C)Cc1cc(C(C)(C)C)c(O)c(C(C)(C)C)c1
### Response F

### Prompt Give the logged outcome of this assay for the following compound: CCN(CCN)c1cccc(C)c1
### Response F

### Prompt Give the logged outcome of this assay for the following compound: CC(C)CCOC(=O)/C=C/c1ccccc1
### Response F

### Prompt Give the logged outcome of this assay for the following compound: CC(C)(C)NSc1nc2ccccc2s1
### Response F
